- method: Kinetics of RSSH generation by 1H NMR with NEM trapping
- Format: physicochemical
- run.conditions: precursor 1 mM, NEM 20 mM, pH 7.4 phosphate buffer, 10% D2O, 37° C.

{"compound": "COc1ccc(NC(=N)SSC(C)(C)C(NC(C)=O)C(=O)O)cc1.Cl (stereo not shown)", "t1//2 (mm), min": 5.0}
{"compound": "CC(=O)NC(C(=O)O)C(C)(C)SSC(=N)Nc1ccccc1Cl.Cl (stereo not shown)", "t1//2 (mm), min": 173}
{"compound": "CC(=O)NC(C(=O)O)C(C)(C)SSC(=N)Nc1ccc(Cl)cc1.Cl (stereo not shown)", "t1//2 (mm), min": 9.3}
{"compound": "CC(=O)NC(C(=O)O)C(C)(C)SSC(=N)Nc1ccccc1.Cl (stereo not shown)", "t1//2 (mm), min": 5.6}
